procedure_text: label from the status in PepcDB records
reported_endpoint: protein production

sequence=MTETYVLAESPEFYQDNVTDYTGQISSSDITNIQAAIDDVKASEQKVIFVVFLSSFDGVDPETWTQQALQANGGGNVLIYALAPEERQYGIQGGTQWTDAELDAANNAAFQALSQEDWAGSALEHHHHHH endpoint_result="not failed"
sequence=MNRFIGYIQVACCCLLLCASCVRDGMDEDCNSYVRFVYDYNLEYIDLFHKQATKMNLYVFDEKGVFVTELKEESGAFAPDYLMTLPGAMAGRRYIFVAWSGLYGESYDKVTLTPGVSTLEDLEVSVNNLKTRIGGGVVDRELHLLWHGKQTEVSPQYNNDITTVSLLKNTKKFRIIMQMLDDSSIHVDDYDFRIISPNGRYNHENGLLGDETDEKVEYTAYHTEDDPETGAIAELNTLRLMTDTENRLVITHKSSGNVILDIPLNKYLNALRLQQYADIPLQEYLDRADKHGIILFFKGMDGNGNYISVDVQINGWLIRKQEVDGV endpoint_result=failed
sequence=LVADASPFAMLEQAPDDLISHYDLTGRLLRVSPAWSRIIGGSVAEAAGRRTWDFIAPEDHPAVAAYYADLLREGAAPSSRLRMRVRHVAGDIRVLESRPMPIRNAEGVVTGFVDIARDITEQIETERRYQLALAQAHEA endpoint_result=failed
sequence=IEDCWLAYATAGTLNEDKSNAILIPTWYSGTHQTWFQQYIGTDHALDPSKYFIISINQIGNGLSVSPANTADDSISMSKFPNVRIGDDVVAQDRLLRQEFGITELFAVVGGSMGAQQTYEWIVRFPDQVHRAAPIAGTAKNTPHDFIFTQTLNETVEADPGFNGGEYSSHEEVADGLRRQSHLWAAMGFSTEFWKQEAWRRLGLESKESVLADFLDPLFMSMDPNTLLNNAWKWQHGDVSRHTGGDLAAALGRVKAKTFVMPISEDMFFPVRDCAAEQALIPGSELRVIEDIAGHLGLFNVSENYIPQIDKNLKE endpoint_result=failed
sequence=MTSTPGISDSLLSSMNGSGANNNTSAISETQDRFMKLLIAQMKNQDPLNPMDNAEVTSQMAQLSTVTGIEKMNASLSTFISSMQATQALQASSLIGNTVLVEGNSTYLAPAETEGESAAYLGVELPIGADKLTVNIKNGAGNVVKTITVTNQPAGISSLGWNGYGDDGTKLPDGRYTIEATATTGNSSVASTPLSYEQVMSVSTGSDGVKLNLSNLAAITTDQIKQIF endpoint_result="not failed"
sequence=MWVWNMVEIKIVFGSSENMEEIPDNSVHLVVTSPPYYNAPFDFPGLFSSYEEYLNLLRKVGKELMRVLQPGRYACFVTQDVRIEGKLYPIVSDLIHIMVHELGFEYQDKIIWRKPEGYIRISRRSGVLIQHPYPMYYYPDNIYEEVVIFKKPGKFDRSAVPPEIREKSKISISKFQAEKWYLSVWDIKNVLPHEKWSKYTAPFPEELAERLIRLYSYVGETVLDPFLGSGTTCVVSRKLHRNCIGYEIDLELREIIEERLG endpoint_result=failed
sequence=MVEAIIFDMDGVLFDTEKYYYDRRASFLGQKGISIDHLPPSFFIGGNTKQVWENILRDEYDKWDVSTLQEEYNTYKQNNPLPYKELIFPDVLKVLNEVKSQGLNIGLASSSVKADIFRALEENRLQAFFDIVLSGEEFKESKPNPEIYLTALKQLNVQASRALIIEDSEKGIAAGVAADVEVWAIRDNLFGMDQSAAKGLLDSLTDVLDLIK endpoint_result="not failed"
